Sourced from the MegaScale stability set (Tsuboyama et al. 2023)

Please provide measured folding stability dG for the entries that follow.
B1: EHEE_rd4_0086 (parent)
chain: EIHIRTNGEEQARKVYKMLAKRNYDVKIEQHNGQWVVTAS

Variants of: B1
experiment.description: folding stability dG (cDNA display proteolysis); higher = more stable
applied.conditions: PBS, room temperature
Give the number; kcal/mol is assumed, so skip it.

Return value of folding stability dG for input Q34N , no commentary.
1.52

Return value of folding stability dG for input I2L , no commentary.
1.61

Return value of folding stability dG for input M18G , no commentary.
0.727

Return value of folding stability dG for input K17S , no commentary.
1.77

Return value of folding stability dG for input V15R , no commentary.
0.424

Return value of folding stability dG for input K17F , no commentary.
1.86

Return value of folding stability dG for input T6R , no commentary.
0.963

Return value of folding stability dG for input I28Y , no commentary.
0.682

Return value of folding stability dG for input T6K , no commentary.
0.706

Return value of folding stability dG for input R5C , no commentary.
2.85

Return value of folding stability dG for input W35V , no commentary.
-0.525

Return value of folding stability dG for input I28W , no commentary.
0.131

Return value of folding stability dG for input K21R , no commentary.
1.95

Return value of folding stability dG for input I4T , no commentary.
-0.094

Return value of folding stability dG for input K21G , no commentary.
1.82

Return value of folding stability dG for input T6Y , no commentary.
1.89

Return value of folding stability dG for input R13Q , no commentary.
1.47

Return value of folding stability dG for input N23P , no commentary.
0.533

Return value of folding stability dG for input E10M , no commentary.
1.89

Return value of folding stability dG for input N7H , no commentary.
1.73

Return value of folding stability dG for input V36F , no commentary.
2.06

Return value of folding stability dG for input A12K , no commentary.
-0.265

Return value of folding stability dG for input K14I , no commentary.
1.82

Return value of folding stability dG for input A12R , no commentary.
-0.218

Return value of folding stability dG for input A20Y , no commentary.
1.55

Return value of folding stability dG for input V36M , no commentary.
1.58

Return value of folding stability dG for input K17C , no commentary.
3.19

Return value of folding stability dG for input Y16I , no commentary.
0.973

Return value of folding stability dG for input K21W , no commentary.
1.61

Return value of folding stability dG for input M18L , no commentary.
1.82

Return value of folding stability dG for input I4A , no commentary.
0.01

Return value of folding stability dG for input N32F , no commentary.
1.45

Return value of folding stability dG for input I4S , no commentary.
-0.073

Return value of folding stability dG for input I4G , no commentary.
-0.953

Return value of folding stability dG for input I2M , no commentary.
1.38

Return value of folding stability dG for input Y24M , no commentary.
1.71

Return value of folding stability dG for input G8L , no commentary.
2.05

Return value of folding stability dG for input Q11I , no commentary.
1.84

Return value of folding stability dG for input E29H , no commentary.
1.78

Return value of folding stability dG for input A12I , no commentary.
0.115

Return value of folding stability dG for input V36I , no commentary.
2.15

Return value of folding stability dG for input E29V , no commentary.
1.98

Return value of folding stability dG for input I28M , no commentary.
1.69

Return value of folding stability dG for input G33V , no commentary.
0.374

Return value of folding stability dG for input R13G , no commentary.
0.376

Return value of folding stability dG for input K27H , no commentary.
1.66

Return value of folding stability dG for input K27I , no commentary.
1.45

Return value of folding stability dG for input K27S , no commentary.
1.5

Return value of folding stability dG for input S40F , no commentary.
2.04

Return value of folding stability dG for input T38S , no commentary.
1.51

Return value of folding stability dG for input H31N , no commentary.
1.72

Return value of folding stability dG for input Q34Y , no commentary.
2.55

Return value of folding stability dG for input Q30C , no commentary.
2.32

Return value of folding stability dG for input N32A , no commentary.
1.7

Return value of folding stability dG for input Y16N , no commentary.
-0.095

Return value of folding stability dG for input H3D , no commentary.
0.614

Return value of folding stability dG for input A20V , no commentary.
2.18

Return value of folding stability dG for input K27W , no commentary.
1.52

Return value of folding stability dG for input A39F , no commentary.
2.32

Return value of folding stability dG for input E10W , no commentary.
2.06

Return value of folding stability dG for input D25N , no commentary.
2.27

Return value of folding stability dG for input K14E , no commentary.
1.68

Return value of folding stability dG for input Q11S , no commentary.
1.55

Return value of folding stability dG for input W35M , no commentary.
-0.847

Return value of folding stability dG for input I28F , no commentary.
0.516

Return value of folding stability dG for input R13E , no commentary.
1.04

Return value of folding stability dG for input E1S , no commentary.
2.08
